Experiment: Selectivity index, ratio of CC50 for human MT4 cells to EC50 for HIV1 3B
Format: toxicity, cell-based
Settings: read-out: Ratio CC50/EC50
# selectivity ratio per entry

                           substance_smiles  result
0           Cc1ccnc2c1NC(=O)c1cccnc1N2C1CC1    > 80
1  CC(=O)Nc1ccc(OCc2nnc(SCC(=O)Nc3ccc(S(N)(=O)=O)cc3)n2Cc2ccccc2)cc1       1

Prompt: I would be grateful if you could share the reported selectivity ratio for CC(=O)Nc1ccc(OCc2n[nH]c(=S)n2Cc2ccccc2)cc1 .
Completion: < 1

Prompt: Look at this compound and give its reported selectivity ratio. O=C(COc1ccc2ccccc2c1)NNC(=S)NCc1ccccc1
Completion: ≤ 1

---

Test: Cytotoxicity against mouse NIH/3T3 cells assessed as decrease in cell survival after 48 hrs by MTT assay
Assay type: toxicity, NIH3T3
Parameter measured: IC50 at 48 h

>>> df
                           substance_smiles       result
0  Cc1ccc(C(C)C)c(OCc2nnc(SCC(=O)Nc3ccc(Cl)cc3)n2Cc2ccccc2)c1  > 100 µg/mL
1  Cc1ccc(C(C)C)c(OCc2nnc(SCC(=O)Nc3ccc(S(N)(=O)=O)cc3)n2Cc2ccccc2)c1  > 100 µg/mL

Prompt: Tell me the measured IC50 at 48 h of CC(=O)Nc1ccc(OCc2nnc(SCC(=O)Nc3ccc(Br)cc3)n2Cc2ccccc2)cc1 , please.
Completion: > 100 µg/mL

---

Assay: Cytotoxicity against human MT4 cells assessed as decrease in cell viability after 5 days by MTT assay
Format: toxicity, cell-based
Reported CC50 at 120 h values for the following compounds.

>>> print(df.to_string())
                           substance_smiles        result
0  O=C(CSc1nnc(COc2ccc3ccccc3c2)n1Cc1ccccc1)Nc1ccc(Cl)cc1  ≥ 4.93 µg/mL
1  CCOC(=O)c1ccc(NC(=O)CSc2nnc(COc3ccc4ccccc4c3)n2Cc2ccccc2)cc1  ≥ 90.7 µg/mL
2  Cc1ccc(C(C)C)c(OCC(=O)NNC(=S)NCc2ccccc2)c1    12.6 µg/mL
3  CC(=O)Nc1ccc(OCc2nnc(SCC(=O)Nc3ccc(Br)cc3)n2Cc2ccccc2)cc1  ≥ 3.99 µg/mL

Prompt: Which CC50 at 120 h reading was recorded for the compound O=C(CSc1nnc(COc2ccc3ccccc3c2)n1Cc1ccccc1)Nc1ccc([N+](=O)[O-])cc1 ?
Completion: ≥ 116 µg/mL

Prompt: CC50 at 120 h lookup needed for NS(=O)(=O)c1ccc(NC(=O)CSc2nnc(COc3ccc4ccccc4c3)n2Cc2ccccc2)cc1 , thanks.
Completion: 94.5 µg/mL

---

Assay: Cytotoxicity against human A549 cells assessed as decrease in cell proliferation after 48 hrs by MTT assay
Format: functional, cell-based
Details: A549, 48 h
Parameter measured: pIC50
Worth noting: pIC50 values are minus log10 of concentrations stated in mol/L.

Prompt: # pIC50 lookup, item Cc1ccc(C(C)C)c(OCc2nnc(SCC(=O)Nc3ccc(Cl)cc3)n2Cc2ccccc2)c1
Completion: 5.10

---

Test: Selectivity index, ratio of CC50 for human MT4 cells to EC50 for HIV2 ROD
Type: toxicity, cell-based
Conditions: read-out: Ratio CC50/EC50
Parameter measured: selectivity ratio

>>> df
                           substance_smiles  parameter_measured  result
0  CC(=O)Nc1ccc(OCC(=O)NNC(=S)NCc2ccccc2)cc1   selectivity ratio     < 1
1  CCOC(=O)c1ccc(NC(=O)CSc2nnc(COc3ccc4ccccc4c3)n2Cc2ccccc2)cc1   selectivity ratio     ≤ 1
2  CC(=O)Nc1ccc(OCc2nnc(SCC(=O)Nc3ccc(Cl)cc3)n2Cc2ccccc2)cc1   selectivity ratio     < 1

Prompt: Recorded selectivity ratio of Cc1ccc(C(C)C)c(OCC(=O)NNC(=S)NCc2ccccc2)c1 , please.
Completion: < 1

Prompt: Report selectivity ratio for Cc1ccnc2c1NC(=O)c1cccnc1N2C1CC1 please.
Completion: < 1

// data source = ChEMBL document CHEMBL3861959
